- assayNotes: in vitro
- conditionContext: human, Cell Viability, Mean (%)
endpoint: viability at 72 h, 2 % (%)
Numbers only; they are read as %.

Task: # viability at 72 h, 2 % lookup, item OCc1ccccc1
Result: 1

###

- assayNotes: in vitro
- conditionContext: human, Cell Viability, Mean (%)
endpoint: viability at 24 h, 0.1 % (%)
Give just the number in %; leave the unit off.

Task: # lookup: viability at 24 h, 0.1 % of OCc1ccccc1 [Benzyl alcohol, benzyl alcohol]
Result: 45.9

###

- assayNotes: in vitro
- conditionContext: human, Cell Viability, Mean (%)
endpoint: viability at 72 h, 1 % (%)
Please give a number only; it is taken to be in %.

Task: Can you look up the measured viability at 72 h, 1 % of OCc1ccccc1 for me?
Result: 0.9

###

- assayNotes: in vitro
- conditionContext: human, Cell Viability
endpoint: viability at 48 h, 0.1 % (%)
Report the value in % with no unit label.

Task: Fill in the blank: the reported viability at 48 h, 0.1 % of OCc1ccccc1 is ____.
Result: 49

###

- assayNotes: in vitro
- conditionContext: human, Cell Viability, Mean (%)
- Description: Cell viability and cell morphology were examined to evaluate the toxicity of excipients on retinal pigment epithelial cells. […] To assess cell viability, mitochondrial metabolism was quantified through conventional colorometric assays (i.e., the MTT assay). […] A resulting purple solution is spectrophotometrically measured. Cell viability is relative to amount of formazan and calculated as a percentage of remaining treated compared to non-treated cells. […]
endpoint: viability at 24 h, 1 % (%)
Value expressed in %; do not type the unit.

Task: Please give the measured viability at 24 h, 1 % for this compound: OCc1ccccc1
Result: 0.4

###

- assayNotes: in vitro
- conditionContext: human, Cell Viability, Mean (%)
endpoint: viability at 24 h, 2 % (%)
Quick note: give the figure in %, leave out the unit.

Task: If you can, please state the reported viability at 24 h, 2 % value of OCc1ccccc1 .
Result: 0.3

###

- assayNotes: in vitro
- conditionContext: human, Cell Viability
endpoint: viability at 72 h, 0.05 % (%)
Give a bare numeral; the unit % is implied.

Task: Report viability at 72 h, 0.05 % for OCc1ccccc1 please.
Result: 57.5

###

- assayNotes: in vitro
- conditionContext: human, Cell Viability, Mean (%)
endpoint: viability at 24 h, 0.5 % (%)
Answer in %, number only, no unit symbol.

Task: Query: viability at 24 h, 0.5 %; subject: OCc1ccccc1 [Benzyl alcohol, benzyl alcohol]
Result: 13.3

###

- assayNotes: in vitro
- conditionContext: human, Cell Viability, Mean (%)
endpoint: viability at 24 h, 0.05 % (%)
Only the number, expressed in %, is required.

Task: // returns reported viability at 24 h, 0.05 % for input OCc1ccccc1
Result: 55.7

###

- assayNotes: in vitro
- conditionContext: human, Cell Viability
- Description: Cell viability and cell morphology were examined to evaluate the toxicity of excipients on retinal pigment epithelial cells. […] To assess cell viability, mitochondrial metabolism was quantified through conventional colorometric assays (i.e., the MTT assay). […] A resulting purple solution is spectrophotometrically measured. Cell viability is relative to amount of formazan and calculated as a percentage of remaining treated compared to non-treated cells. […]
endpoint: viability at 24 h, 0.05 % (%)
Provide the reading as a plain figure in %.

Task: // lookup viability at 24 h, 0.05 % for OCc1ccccc1
Result: 56.1

The reported numbers originate from patent US20050244472A1.
